The measured values listed here are drawn from patent US20020049162A1.

- Tested on: Human coronary artery smooth muscle cells
- measurement-protocol: Inhibition of human smooth muscle cell proliferation (cell counts, growth rate vs wells without peptide)
- Type: cell-based
- stated-conditions: percentage of the control growth rate, Day 1 vs Day 4; values below 100 = inhibition; peptides 0.1-10 μg/ml, concentration not given
Ends that are not written are not given here.
quantity-name: % Control Proliferation Day 1 vs Day 4 (%)
Number only, in %; omit the unit.

Worked cases, answers included:
- DRVAIHP [Peptide 1GD]: 55.4
- A(1-7): AII residues 1-7, SEQ ID NO:4 (DRVYIHP) [reference compound]: 73.3
- DRKYIHP [Peptide 5GD]: 86.6
- Arg—Val—Tyr—Ile—His—Pro (RVYIHP) [A(2-7)]: 82.4
- Val—Tyr—Ile—His—Pro—Phe (VYIHPF) [A(3-8)]: 74.7
- DRVYIH [A(1-6)]: 76.5

Shifting focus to the substance that follows.
Can you share its % Control Proliferation Day 1 vs Day 4? I mean this substance: Asp—Arg—Val—Tyr—Ile—His—Pro—Phe (DRVYIHPF) [AII, reference compound]
121.4
